Some compounds, each annotated with its measured melting point.

Illustrative cases are given below, each with its answer.
| compound | reported |
| --- | --- |
| N#Cc1ccc(C(F)(F)C(F)(F)c2ccccc2)cc1 | 118 to 123 °C |
| CCCCC(Cn1cncn1)(C(=O)O)c1ccccc1OC (stereo not given) | 198 °C |
| CCN(CC)c1ccc(-n2cc(-c3ccc(C4=C(C#N)C(=C(C#N)C#N)OC4(C)C)cc3)nn2)cc1 | 265 °C |
| CCC1=C(C#N)C(c2cccc(C#N)c2Br)c2c[nH]nc2N1 (stereo not given) | > 300 °C |
| COC(=O)[C@H](Cc1c[nH]cn1)NC(=O)[C@H](CCC(N)=O)NC(=O)OCc1ccccc1 | 186 to 188 °C |

Query :: Fill in the blank: the reported melting point of OC1(c2ccc(-c3ccc(F)cc3)cc2)CN2CCC1CC2 (stereo not given) is ____.
Result :: 172 to 173 °C

Query :: Fill in the blank: the reported melting point of CCc1cc(C(=O)O)ccc1N=C1SCC2(CCCC2)N1C1CCCC1 is ____.
Result :: 208 to 209 °C

Query :: Fill in the blank: the reported melting point of CCc1nc2c(Cl)ncnc2n1Cc1ccc(OC)cc1 is ____.
Result :: 101 to 103 °C

Query :: Fill in the blank: the reported melting point of COc1cccc(OC)c1-c1cc(C(=O)N[C@H](C(=O)O)C2CCCCC2)nn1-c1ccc(C(N)=O)c2ccccc12 is ____.
Result :: 186 °C

Query :: Fill in the blank: the reported melting point of CCCc1nc2c(N)nc3cccnc3c2n1CCCC(=O)N1CCOCC1 is ____.
Result :: 196 to 197 °C

Query :: Fill in the blank: the reported melting point of COc1cc2c(cc1C(F)(F)F)N(C(=O)Nc1ccc(F)c(-c3cccnc3)c1)CC2 is ____.
Result :: 210 to 212 °C

Query :: Fill in the blank: the reported melting point of COc1cc(N2CCCN(C[C@H](O)CO)CC2)ccc1Nc1ncc2ccc(-c3ccccc3N(C)S(C)(=O)=O)n2n1 is ____.
Result :: 93 to 99 °C

Query :: Fill in the blank: the reported melting point of Cc1nc(-c2ccc(SC(C)C)c([N+](=O)[O-])c2)sc1C(=O)O is ____.
Result :: 233 to 235 °C

Query :: Fill in the blank: the reported melting point of CC(=O)OCC(=O)Nc1cccc(Cl)c1C#N is ____.
Result :: 109 to 110 °C

Query :: Fill in the blank: the reported melting point of Cn1c(=O)sc2cc(N3C[C@H](CN)OC3=O)ccc21 is ____.
Result :: 217 °C

Query :: Fill in the blank: the reported melting point of COc1ccc(/C=C(\C#N)c2ccccn2)cc1OC1CCCC1 is ____.
Result :: 82.5 to 83 °C

Query :: Fill in the blank: the reported melting point of CC(C)(C)OC(=O)NNC(=O)c1cc(=O)c(OCc2ccccc2)c[nH]1 is ____.
Result :: 160 to 165 °C

Query :: Fill in the blank: the reported melting point of Cc1ccc(COc2ccc(CC(NC(=O)c3cn4ccc(-c5ccc(Cl)cc5)cc4n3)C(=O)O)cc2)cc1 (stereo not given) is ____.
Result :: 262 °C

Query :: Fill in the blank: the reported melting point of CN1Cc2c(Cl)ccc3scc(c23)S1(=O)=O is ____.
Result :: 196 °C

Query :: Fill in the blank: the reported melting point of COc1cc(N)ccc1-c1cnn(C)c1 is ____.
Result :: 129 to 131 °C

----------
observable: melting point (°C)

| molecule | unit_annotation | reported |
| --- | --- | --- |
| CCOC(=O)c1c(O)c2cc(C)ccc2n(Cc2ccccc2)c1=O | °C | 113 |

[a] Cc1nc(Cl)c(SC(F)F)n1-c1c(Cl)cc(C(F)(F)F)cc1Cl
[b] O=C1CCCCC(CCc2nc3cc(Br)cnc3[nH]2)N1 (stereo not given)
Query :: Input pair: a , b . Output: entry with lower melting point. Answer with the label corresponding to your selection.
Result :: a
(a: 118 °C, b: 245 °C)

[I] CC1=CC(c2ccccc2C(F)(F)F)C([N+](=O)[O-])=C(C)N1 (stereo not given)
[II] O=Cc1cccc(CF)n1
Query :: From the recorded data, which exceeds the other in melting point: I or II ? Answer with the label corresponding to your selection.
Result :: I
(I: 201 °C, II: 60 °C)

----------
Some molecules, each annotated with its measured melting point.

Illustrative cases are given below, each with its answer.
| molecule | melting point |
| --- | --- |
| COc1cc(SCc2ccccc2)c([N+](=O)[O-])cc1OC | 174 to 176 °C |
| [N-]=[N+]=NC(C(=O)O)C1c2ccccc2CCc2ccccc21 (centres undefined) | 101 to 102 °C |
| CC(=O)NCc1cccc(Nc2nccc(-c3sc(N(C)c4cc(Cl)cc(Cl)c4)nc3C)n2)c1 | 213 to 214 °C |

Query :: Fill in the blank: the reported melting point of Cc1ncc(-c2ccc(Cl)cc2)cc1C#N is ____.
Result :: 158 to 159 °C

Query :: Fill in the blank: the reported melting point of CC(=O)c1c(C)c(C#N)c2nc(C3CC3)oc2c1N1CC[C@H](N(C)C)C1 is ____.
Result :: 142 °C

Query :: Fill in the blank: the reported melting point of CCOC(=O)c1cc(C(=O)C(C)(C)Br)c(=O)[nH]c1C(=O)OCC is ____.
Result :: 124 to 126 °C

----------
observable: melting point

Illustrative cases are given below, each with its answer.
| compound | melting point |
| --- | --- |
| N#Cc1ccc(COc2cccc(F)c2)cc1 | 69 to 70 °C |
| CCc1cn(C2OC(CNC(=O)C(C)Oc3c(Cl)cc(Cl)c(OC)c3Cl)C(OC(=O)C(NC(=O)OC(C)(C)C)C(C)C)C2F)c(=O)[nH]c1=O (stereo not drawn) | 147 to 149 °C |
| CCN1CCC(C(c2ccccc2)c2ccccc2)C(=O)C1 (stereo not drawn) | 73 to 74 °C |
| CCN1CC(OCC2CC2)(C(F)(F)F)c2cc(F)ccc2NC1=O (stereo not drawn) | 156 °C |
| O=C(OCCO)c1ccc([N+](=O)[O-])cc1 | 77 to 78 °C |

Query :: Fill in the blank: the reported melting point of NC(=O)c1cnc2c(NC(=O)c3c(Cl)cccc3Cl)cccc2c1 is ____.
Result :: > 250 °C

Query :: Fill in the blank: the reported melting point of COc1nc2ccc(Cl)cc2nc1Sc1nnc(C)s1 is ____.
Result :: 186 to 188 °C

Query :: Fill in the blank: the reported melting point of CCN(CC)C(=O)[C@H]1C[C@H](C(=O)OC(C)(C)C)N(C(=O)CNC(=O)Nc2cccc(C(=O)O)c2)[C@@H]1c1ccccc1F (racemic) is ____.
Result :: 150 °C

Query :: Fill in the blank: the reported melting point of CN(CCC1=C(C#N)C(c2cccc3nonc23)c2c[nH]nc2N1)C(=O)OC(C)(C)C (stereo not drawn) is ____.
Result :: 240 °C

Query :: Fill in the blank: the reported melting point of c1ccc(C(Nn2cncn2)c2ccccc2)cc1 is ____.
Result :: 142 to 145 °C

Query :: Fill in the blank: the reported melting point of CC(=O)Nc1nc(N)nc(C2CCC(c3ccccc3)CC2)n1 (stereo not drawn) is ____.
Result :: > 260 °C

Query :: Fill in the blank: the reported melting point of CCOC(=O)Oc1ccc2nc(S)n(C)c(=O)c2c1 is ____.
Result :: 216 to 220 °C

Query :: Fill in the blank: the reported melting point of COc1cccn2nc(S(=O)(=O)Nc3c(F)cccc3F)nc12 is ____.
Result :: 254 to 255 °C

Query :: Fill in the blank: the reported melting point of CC1(C)C(=O)NC(c2ccc(NC(=O)CCl)cc2)c2ccccc21 (stereo not drawn) is ____.
Result :: 218 to 219 °C

----------
observable: melting point

| compound | melting point |
| --- | --- |
| CN(C)CCN1c2ccccc2C(=O)N(C)c2cccnc21 | 109 to 110 °C |
| COc1cc(OC)cc(C2CCCCC2=O)c1 (stereo not given) | 61 to 62 °C |
| CC(=O)Nc1ccc(OCC(O)CNC2CCc3ccccc3C2)cc1 (stereo not given) | 133 to 136 °C |
| CCCCCCC(C(=O)O)n1ccc2cc(-c3ccccc3-c3nn[nH]n3)ccc21 (stereo not given) | 105 to 115 °C |
| CCCCC(C)(CC)C(=O)C(Oc1ccc(-c2ccccc2)cc1)n1cnnc1 (stereo not given) | 67 to 68 °C |
| CC1(Oc2ccccc2)CN(Cc2ccc(COc3cccc4c3CN(C3CCC(=O)NC3=O)C4=O)cc2)C1 (stereo not given) | 127 to 129 °C |
| CCCc1c(C(=O)C(C)C)c2ccc(C(=O)O)cc2n1Cc1ccccc1F | 212 to 213 °C |
| CCCCCCCCCCCCCSc1nnc(NC(=O)Nc2c(C(C)C)cccc2C(C)C)[nH]1 | 131 to 135 °C |
| CCOC(=O)c1c(Nc2cccc3ccccc23)n[nH]c1C | 199 to 202 °C |
| CN(C)CCOc1c2c(nc3ccccc13)C(C)(C)OC2 | 92 to 93 °C |

Query :: Fill in the blank: the reported melting point of CCc1c(-c2ccc(O)cc2)n(Cc2ccc(OCCN3CCCCC3)cc2)c2ccc(O)cc12 is ____.
Result :: 160 to 164 °C

Query :: Fill in the blank: the reported melting point of CC(=O)OC1(c2ccc(Cl)cc2)CCN(CCCC(=O)c2ccc(F)cc2)CC1 is ____.
Result :: 106 to 110 °C

Query :: Fill in the blank: the reported melting point of COc1ccc(N2CCN(c3ncc(-n4cn[nH]c4=O)cn3)CC2)cc1 is ____.
Result :: 272 °C

Query :: Fill in the blank: the reported melting point of Cc1c(-c2ccc3sc(=O)n(C)c3c2)nc2ccccn12 is ____.
Result :: 206 to 208 °C

Hello, the source for this data is a melting point compilation (Tetko et al.; mined from patent text by program, amines drawn as free bases though some values may be those of a salt), in case you need it.
